tested on: HCT-116 colon carcinoma; assay: Inhibition of in vitro cell proliferation (HCT116); assay type: cell-based, human; settings: 14C-thymidine incorporation
Observable: IC50

// returns IC50 for CON=Cc1c(N)ncnc1Oc1ccc(NC(=O)Nc2ccc(OC)cc2)c(Cl)c1 [Cpd 63] with HCT-116 colon carcinoma; value = > 10 µM

---
The compound CON=Cc1c(N)ncnc1Oc1ccc(NC(=O)Nc2ccc(OC)cc2)c(Cl)c1 [Cpd 62] on HCT-116 colon carcinoma: IC50 was > 100 µM

====

test system: HCT-116 colon carcinoma; assay: Inhibition of in vitro cell proliferation (HCT116); type: cell-based, human; conditions: Homo sapiens, HCT-116, 14C-thymidine incorporation;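 also: cells exposed to compound for 24 h, then 14C-thymidine added for a further 24 h and its uptake into DNA counted by scintillation, DMSO-only wells as control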
Observable: IC50 (µM)

The compound listed as CON=Cc1c(N)ncnc1Oc1ccc(NC(=O)Nc2nc(C)c(C)s2)c(Cl)c1 [Cpd 92] has a reported IC50 of 16.9

Memo: Cc1cc2c(F)c(Oc3ncnc(N)c3C=NOCCCCN3CCCC3)ccc2[nH]1 [Cpd 25] , reported IC50: 0.1

Entry under test: CCCON=Cc1c(N)ncnc1Oc1ccc2[nH]c(C)cc2c1F [Cpd 34] . Its IC50 was 0.03

Reported IC50 for CON=Cc1c(N)ncnc1Oc1ccc(NC(=O)Nc2cc(C)on2)c(Cl)c1 [Cpd 93] was 3.12

Entry CON=Cc1c(N)ncnc1Oc1cc2cc[nH]c2cc1F [Cpd 8] — recorded IC50 = 0.422

P. Cc1cc2c(F)c(Oc3ncnc(N)c3C=NOCCCO)ccc2[nH]1 [Cpd 29]
Q. CNC(=O)n1c(C)cc2cc(Oc3ncnc(N)c3C=NOC)ccc21 [Cpd 49]
Challenge: Which value of IC50 is smaller, the one for P or the one for Q ? Reply briefly: the label of your chosen item.
Response given: P

a. C=CCON=Cc1c(N)ncnc1Oc1ccc2[nH]c(C)cc2c1F [Cpd 31]
b. Cc1cc2c(F)c(Oc3ncnc(N)c3C=NOCCCN3CCCC3)ccc2[nH]1 [Cpd 18]
Challenge: Lower IC50: a or b ? API: response body contains the label of the selected item.
Response given: a
(a: 0.04 µM, b: 4.5 µM)
